Please go through the items and note down their pIC50.
Biological target: Cyclin-dependent kinase 2/cyclin E1 (Homo sapiens)
Experiment: Inhibition of CDK2/Cyclin E (unknown origin) expressed in baculoviral infected insect Sf9 cells using histone H1 as substrate in presence of [gamma-33P]ATP
Conditions: read-out: IC50
One number for each entry, as −log10 of the molar value.

Batch request: pIC50 for each of the following molecules.
1. O=C(Cn1nncc1-c1c[nH]c2ncccc12)c1c[nH]c2ncccc12
2. c1cnc2[nH]cc(CCn3cc(-c4c[nH]c5ncccc45)nn3)c2c1
3. c1cnc2[nH]c(Cn3cc(-c4cc5cccnc5[nH]4)nn3)cc2c1
4. c1cnc2[nH]cc(CCn3nncc3-c3c[nH]c4ncccc34)c2c1
5. c1cnc2[nH]cc(CCCn3nncc3-c3c[nH]c4ncccc34)c2c1

Response:
1: 5.96; 2: 5.14; 3: 5.72; 4: 5.04; 5: 5.57

====

Molecular target: Cyclin-dependent kinase 1/cyclin B1 (Homo sapiens, UniProt P06493)
Sequence (P06493 whole entry): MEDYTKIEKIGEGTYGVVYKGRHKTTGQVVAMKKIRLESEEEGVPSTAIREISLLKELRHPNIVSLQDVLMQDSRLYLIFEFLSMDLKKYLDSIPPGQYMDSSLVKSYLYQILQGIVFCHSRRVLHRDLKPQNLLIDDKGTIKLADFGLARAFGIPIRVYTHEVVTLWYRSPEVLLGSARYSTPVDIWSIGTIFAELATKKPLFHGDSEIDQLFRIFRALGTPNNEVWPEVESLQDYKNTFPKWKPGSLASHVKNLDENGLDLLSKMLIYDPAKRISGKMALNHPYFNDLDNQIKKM
Sequence (P14635 whole entry, further chain): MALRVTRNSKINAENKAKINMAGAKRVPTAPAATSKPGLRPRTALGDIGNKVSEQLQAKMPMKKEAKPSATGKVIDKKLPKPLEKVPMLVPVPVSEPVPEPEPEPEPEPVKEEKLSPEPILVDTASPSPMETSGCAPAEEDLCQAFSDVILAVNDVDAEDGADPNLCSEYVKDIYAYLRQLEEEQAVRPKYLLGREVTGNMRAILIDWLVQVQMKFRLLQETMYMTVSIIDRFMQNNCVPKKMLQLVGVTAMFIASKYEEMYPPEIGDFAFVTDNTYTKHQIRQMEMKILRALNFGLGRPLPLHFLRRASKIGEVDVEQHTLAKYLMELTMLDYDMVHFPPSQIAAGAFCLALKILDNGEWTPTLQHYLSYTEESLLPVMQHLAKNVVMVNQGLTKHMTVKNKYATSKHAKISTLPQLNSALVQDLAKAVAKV
Test: Inhibition of CDK1/Cyclin B (unknown origin) expressed in baculoviral infected insect Sf9 cells using histone H1 as substrate in presence of [gamma-33P]ATP
Record form. Attribute: pIC50. Fill in for each entry.
Give bare numbers, as −log10 of the molar value.

Each of the following entries comes with a recorded value; kindly state pIC50 for each.
1. c1cnc2[nH]c(-c3cnnn3CCCc3c[nH]c4ncccc34)cc2c1
2. COc1ccccc1-c1cc(Nc2cccc(CS(N)(=O)=O)c2)ncn1
3. CC(C)c1cnn2c(NCc3ccccc3)cc(NCCCCCCN)nc12

Response:
[4.94, 5.40, 4.85]

====

Target: Cyclin-dependent kinase 2/cyclin E1 (Homo sapiens)
Assay: Inhibition of CDK2/Cyclin E (unknown origin) expressed in baculoviral infected insect Sf9 cells using histone H1 as substrate in presence of [gamma-33P]ATP
Settings: read-out: pIC50 (converted)
Threshold 10 µM: IC50 strictly smaller gives fulfilled, otherwise not fulfilled.

Some entries whose results are on file:
O=C(CCn1cc(-c2c[nH]c3ncccc23)nn1)c1c[nH]c2ncccc12; not fulfilled
c1cnc2[nH]c(Cn3cc(-c4cc5cccnc5[nH]4)nn3)cc2c1; fulfilled
O=C(Cn1cc(-c2ccccc2)nn1)c1c[nH]c2ncccc12; not fulfilled

Request: Is the reported IC50 for O=S(=O)(c1ccccc1)n1c(-c2cn(CCc3c[nH]c4ncccc34)nn2)cc2cccnc21 strictly below 10 µM?
Response: not fulfilled

Request: Below 10 µM on IC50? Entry O=C(Cn1cc(-c2c[nH]c3ncccc23)nn1)c1c[nH]c2ncccc12
Response: not fulfilled

Request: For this compound, is IC50 lower than 10 µM? O=C(CCn1nncc1-c1c[nH]c2ncccc12)c1c[nH]c2ncccc12
Response: not fulfilled

====

Biological target: Cyclin-dependent kinase 2/cyclin E1 (Homo sapiens)
Experiment: Inhibition of CDK2/Cyclin E (unknown origin) expressed in baculoviral infected insect Sf9 cells using histone H1 as substrate in presence of [gamma-33P]ATP
Settings: read-out: pIC50 (converted)
EXPERIMENTAL_ENDPOINT: IC50 (µM)
Give bare numbers, in µM.

Reference set (3 entries):
c1cnc2[nH]cc(CCn3cc(-c4c[nH]c5ncccc45)nn3)c2c1; 7.94
O=C(Cn1nncc1-c1c[nH]c2ncccc12)c1c[nH]c2ncccc12; 1
O=C(Cn1cc(-c2cc3cccnc3[nH]2)nn1)c1c[nH]c2ncccc12; 10

Please examine the following record next.
What the record says about c1cnc2[nH]c(-c3cn(CCc4c[nH]c5ncccc45)nn3)cc2c1 : IC50 is 31.6

====

Target: Cyclin-dependent kinase 2/cyclin E1 (Homo sapiens)
Test: Inhibition of CDK2/Cyclin E (unknown origin)
Type: protein-complex assay
EXPERIMENTAL_ENDPOINT: pIC50
Numbers only, as −log10 of the molar value.

Consider the worked cases shown below.
Cc1nc2ccccn2c1-c1ccnc(NC(=O)Nc2ccccc2)n1; 5.00
Nc1ccc(CC(=O)Nc2cccc3c2C(=O)c2c-3n[nH]c2-c2ccc(O)cc2)cc1; 7.42
Cn1ccc2ccc3c4[nH]c5cccc(Br)c5c4c4c(c3c21)C(=O)NC4=O; 5.54

Batch lookup, pIC50 per entry.
1. O=C(NNC(=O)c1ccccc1O)Nc1cccc2c1C(=O)c1c-2n[nH]c1-c1ccc(O)cc1
2. NC(=O)C(=O)NNC(=O)Nc1cccc2c1C(=O)c1c-2n[nH]c1-c1ccc(O)cc1
3. CC(C)[C@H](CO)Nc1nc(NCc2ccc(Cl)cc2)c2ncn(C(C)C)c2n1

Response:
[8.05, 7.72, 7.46]

For this molecule ( Cc1nc(C)c(-c2ccnc(Nc3ccc(N4CCN(C)CC4)cc3)n2)s1 ), measured pIC50 is 5.99

====

Molecular target: Cyclin-dependent kinase 4/cyclin D1 (Homo sapiens)
Sequence (P11802 whole entry): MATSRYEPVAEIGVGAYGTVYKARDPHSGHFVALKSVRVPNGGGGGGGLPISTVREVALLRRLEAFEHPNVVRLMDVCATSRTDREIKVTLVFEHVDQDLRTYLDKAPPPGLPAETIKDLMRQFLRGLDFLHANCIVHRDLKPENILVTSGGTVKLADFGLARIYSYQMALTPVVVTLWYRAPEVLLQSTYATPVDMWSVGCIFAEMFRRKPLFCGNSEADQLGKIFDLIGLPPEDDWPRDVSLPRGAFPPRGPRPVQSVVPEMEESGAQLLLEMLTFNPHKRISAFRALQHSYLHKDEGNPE
Sequence (P24385 whole entry, further chain): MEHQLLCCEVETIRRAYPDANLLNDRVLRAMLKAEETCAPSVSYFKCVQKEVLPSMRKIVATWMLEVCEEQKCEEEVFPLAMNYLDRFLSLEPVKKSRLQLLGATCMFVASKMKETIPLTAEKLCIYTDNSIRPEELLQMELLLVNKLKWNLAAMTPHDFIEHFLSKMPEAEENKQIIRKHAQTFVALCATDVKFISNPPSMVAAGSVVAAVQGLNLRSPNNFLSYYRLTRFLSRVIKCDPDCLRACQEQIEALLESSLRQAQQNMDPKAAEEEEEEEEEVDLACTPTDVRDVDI
Assay: Inhibition of CDK4/Cyclin D1 (unknown origin) using RPPTLSPIPHIPR peptide as substrate in presence of [gamma-33P]ATP
Assay type: protein-complex assay
Give IC50 for every item shown.
Write the numeric value and follow it with the unit.

For every item in the list below, what is its measured IC50?
1. c1cnc2[nH]c(-c3cnnn3CCCc3c[nH]c4ncccc34)cc2c1
2. COc1ccccc1-c1cc(Nc2cccc(CS(N)(=O)=O)c2)ncn1
3. CC(C)c1cnn2c(NCc3ccccc3)cc(NCCCCCCN)nc12

Response:
1. 9 µM
2. 3.16 µM
3. 44.7 µM

====

Target: CDK9/cyclin T1 (Homo sapiens)
Sequence (O60563 whole entry): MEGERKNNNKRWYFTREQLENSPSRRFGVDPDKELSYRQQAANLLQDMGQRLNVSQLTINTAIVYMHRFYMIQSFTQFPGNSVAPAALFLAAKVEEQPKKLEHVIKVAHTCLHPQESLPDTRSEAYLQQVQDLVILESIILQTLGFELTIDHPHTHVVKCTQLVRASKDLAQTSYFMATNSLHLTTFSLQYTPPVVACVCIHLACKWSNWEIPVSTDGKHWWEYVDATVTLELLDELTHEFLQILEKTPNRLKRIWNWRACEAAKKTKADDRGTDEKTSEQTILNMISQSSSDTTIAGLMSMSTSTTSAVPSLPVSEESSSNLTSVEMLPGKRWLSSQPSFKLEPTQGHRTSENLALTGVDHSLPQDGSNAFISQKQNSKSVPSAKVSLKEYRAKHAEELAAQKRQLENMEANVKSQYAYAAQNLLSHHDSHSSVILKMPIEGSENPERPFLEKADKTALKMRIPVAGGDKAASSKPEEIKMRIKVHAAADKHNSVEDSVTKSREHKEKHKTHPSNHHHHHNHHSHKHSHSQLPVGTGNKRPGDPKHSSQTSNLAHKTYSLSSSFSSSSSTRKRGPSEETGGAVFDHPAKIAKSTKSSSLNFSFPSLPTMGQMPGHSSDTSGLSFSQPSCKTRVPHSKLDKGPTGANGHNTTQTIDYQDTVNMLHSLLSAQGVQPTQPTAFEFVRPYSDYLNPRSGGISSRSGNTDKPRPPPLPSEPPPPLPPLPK
Sequence (P50750 whole entry): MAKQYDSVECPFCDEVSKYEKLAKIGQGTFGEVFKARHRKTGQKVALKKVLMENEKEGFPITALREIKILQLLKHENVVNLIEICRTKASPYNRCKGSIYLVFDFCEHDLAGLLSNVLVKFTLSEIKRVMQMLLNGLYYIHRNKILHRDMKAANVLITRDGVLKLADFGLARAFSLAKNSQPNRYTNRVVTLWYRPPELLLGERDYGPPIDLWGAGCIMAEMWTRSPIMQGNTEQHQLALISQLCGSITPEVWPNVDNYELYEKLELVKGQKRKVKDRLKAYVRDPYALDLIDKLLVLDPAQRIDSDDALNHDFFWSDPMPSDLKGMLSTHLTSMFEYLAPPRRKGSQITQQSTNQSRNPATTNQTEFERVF
Experiment: Inhibition of CDK9/Cyclin T1 (unknown origin) using (YSPTSPS)2KK peptide as substrate in presence of [gamma-33P]ATP
EXPERIMENTAL_ENDPOINT: IC50 (µM)
One number for each entry, in µM.

c1cnc2[nH]c(-c3cnnn3CCCc3c[nH]c4ncccc34)cc2c1 has a reported IC50 of 9

====

Hi there, I'd appreciate the recorded pIC50 for every entry that follows.
Target: Cyclin-dependent kinase 2/cyclin E1 (Homo sapiens, UniProt P24941)
Assay: Inhibition of CDK2/Cyclin E (unknown origin) expressed in baculoviral infected insect Sf9 cells using histone H1 as substrate in presence of [gamma-33P]ATP
Settings: read-out: IC50
Numbers only, as −log10 of the molar value.

Solved entries:
O=C(CCn1nncc1-c1cc2cccnc2[nH]1)c1c[nH]c2ncccc12; 4.44
O=C(CCn1cc(-c2c[nH]c3ncccc23)nn1)c1c[nH]c2ncccc12; 4.75
c1cnc2[nH]cc(CCCn3cc(-c4c[nH]c5ncccc45)nn3)c2c1; 5.21

Now consider a different compound.
Per the records, this compound ( c1cnc2[nH]c(-c3cnnn3CCCc3c[nH]c4ncccc34)cc2c1 ) has pIC50 equal to 5.70

====

Biological target: Cyclin-dependent kinase 2/cyclin E1 (Homo sapiens, UniProt P24941)
Assay: Inhibition of CDK2/Cyclin E (unknown origin) expressed in baculoviral infected insect Sf9 cells using histone H1 as substrate in presence of [gamma-33P]ATP
Conditions: read-out: pIC50 (converted)
EXPERIMENTAL_ENDPOINT: IC50 (µM)
One number for each entry, in µM.

Worked examples, 4 molecules total:
O=S(=O)(c1ccccc1)n1c(-c2cn(CCCc3c[nH]c4ncccc34)nn2)cc2cccnc21; 20
c1cnc2[nH]c(Cn3cc(-c4c[nH]c5ncccc45)nn3)cc2c1; 20
O=C(Cn1nncc1-c1cc2cccnc2[nH]1)c1c[nH]c2ncccc12; 3.16
c1cnc2[nH]cc(CCCn3nncc3-c3c[nH]c4ncccc34)c2c1; 2.51

According to the records, this molecule c1cnc2[nH]c(-c3cnnn3CCc3c[nH]c4ncccc34)cc2c1 displays IC50 of 25.1

====

Biological target: Cyclin-dependent kinase 2/cyclin E1 (Homo sapiens, UniProt P24941)
Assay: Inhibition of CDK2/Cyclin E (unknown origin) expressed in baculoviral infected insect Sf9 cells using histone H1 as substrate in presence of [gamma-33P]ATP
Conditions: read-out: IC50
Please respond with reported pIC50 for every item in the list.
One number for each entry, as −log10 of the molar value.

c1cnc2[nH]c(Cn3cc(-c4c[nH]c5ncccc45)nn3)cc2c1; 4.74
O=C(CCn1cc(-c2cc3cccnc3[nH]2)nn1)c1c[nH]c2ncccc12; 5.44

Let us examine a further case.
pIC50 reported for this compound O=C(Cn1cc(-c2cc3cccnc3[nH]2)nn1)c1c[nH]c2ncccc12 : 5.04

====

Biological target: Cyclin-dependent kinase 2/cyclin E1 (Homo sapiens)
Experiment: Inhibition of CDK2/Cyclin E (unknown origin) expressed in baculoviral infected insect Sf9 cells using histone H1 as substrate in presence of [gamma-33P]ATP
Details: read-out: pIC50 (converted)
EXPERIMENTAL_ENDPOINT: IC50 (µM)
Give bare numbers, in µM.

c1ccc(-c2cn(CCc3c[nH]c4ncccc34)nn2)cc1; 100

# return IC50 for each item in the list
1. O=S(=O)(c1ccccc1)n1cc(Cn2cc(-c3c[nH]c4ncccc34)nn2)c2cccnc21
2. O=S(=O)(c1ccccc1)n1cc(Cn2cc(-c3cc4cccnc4[nH]3)nn2)c2cccnc21
3. c1cnc2[nH]c(-c3cnnn3CCCc3c[nH]c4ncccc34)cc2c1
4. c1cnc2[nH]cc(CCCn3cc(-c4c[nH]c5ncccc45)nn3)c2c1

Response:
25.1
25.1
2
6.31

Entry source: ChEMBL document CHEMBL3763042
